# Test system: PEX405 cells
# Experimental Details: Catalase import immunofluorescence, high-content screening (% importing cells)
# Type: cell-based, human
# Assay Setup: PEX405 cells, 1.3 µM, 3 days
Catalogue of % Importing cells readings, one per entry.

| Compound | % Importing cells |
| --- | --- |
| O=C(c1ccc(Cl)cc1Cl)n1nnc2ccccc21 [ITSA-1] | 3% |
| COC(=O)c1ccc(OC(=O)CCCCCCC(=O)NO)cc1 [Remetinostat] | 3% |
| CCOC(=O)NCCCC(=O)NCCc1ccccc1 [Santacruzamate A] | 3% |

----------
Catalogue of % Importing cells readings, one per entry.
# Test system: PEX405 cells
# Experimental Details: Catalase import immunofluorescence, high-content screening (% importing cells)
# Format: cell-based, human
# Assay Setup: PEX405 cells, 1.3 µM, 3 days
Quantity Kind: % Importing cells (%)

| Compound | System Name | Recorded Result |
| --- | --- | --- |
| Cn1cc(-c2ccc(S(=O)(=O)n3ccc(/C=C/C(=O)Nc4ccccc4N)c3)cc2)cn1 [Domatinostat] | PEX405 cells | 4 |
| CN1CCc2c(c3ccccc3n2Cc2ccc(C(=O)NO)cc2)C1.Cl [Tubastatin A (Hydrochloride), Tubastatin A] | PEX405 cells | 3 |
| CC(C)(C)OC(=O)Nc1ccc(-c2cc(C(=O)NCCCCCCC(=O)NO)no2)cc1 [CAY10603] | PEX405 cells | 22 |
| O=C(NO)c1ccc(CNC(=O)c2[nH]c(-c3ccc(O)cc3)cc2-c2ccoc2)cc1.O=C(O)C(F)(F)F [QTX125 (TFA)] | PEX405 cells | 23 |
| Cn1c(CCCCCCC(=O)NO)nc2cc(N(CCCl)CCCl)ccc21 [EDO-S101] | PEX405 cells | 7 |
| Cc1[nH]c2ccccc2c1CCNCc1ccc(/C=C/C(=O)NO)cc1 [Panobinostat] | PEX405 cells | 6 |
| Cc1cc(C)cc(C(=O)NOCCCCCC(=O)NO)c1 [LMK-235] | PEX405 cells | 45 |
| CC(=O)N[C@@H](CCCCN)C(=O)Nc1ccc2c(C)cc(=O)oc2c1 [Ac-Lys-AMC] | PEX405 cells | 3 |
| O=C(CCCCCCC(=O)Nc1cccnc1)NO [Pyroxamide] | PEX405 cells | 5 |

----------
Catalogue of % Importing cells readings, one per entry.
# System: GM16513 cells
# Experimental Details: Catalase import immunofluorescence, high-content screening (% importing cells)
# Type: cell-based, human
# Assay Setup: GM16513 cells, 1.3 µM, 3 days

| Compound | System Name | % Importing cells [%] |
| --- | --- | --- |
| CCN1CCN(C(c2cccnc2)c2cc(Cl)c3cccnc3c2O)CC1 (stereo not drawn) | GM16513 cells | 21 |
| CC(=O)Nc1ccc(C(=O)Nc2ccc(F)cc2N)cc1 | GM16513 cells | 12 |
| Nc1cc(F)ccc1NC(=O)/C=C/c1cnn(C/C=C/c2ccccc2)c1 | GM16513 cells | 11 |
| CN1CCc2c(c3ccccc3n2Cc2ccc(C(=O)NO)cc2)C1.Cl [Tubastatin A (Hydrochloride), Tubastatin A] | GM16513 cells | 12 |
| Cn1c(CCCCCCC(=O)NO)nc2cc(N(CCCl)CCCl)ccc21 | GM16513 cells | 35 |
| Cn1cc(CNCC2CCN(c3ncc(C(=O)NO)cn3)CC2)c2ccccc21 | GM16513 cells | 98 |
| O=C(NO)c1ccc(CC(=O)N(CCO)c2ccccc2)cc1 | GM16513 cells | 29 |
| COC(=O)c1ccc(OC(=O)CCCCCCC(=O)NO)cc1 | GM16513 cells | 12 |
| O=C(NO)c1ccc(Cn2c(=O)n(CCc3ccccc3)c(=O)c3ccccc32)cc1 | GM16513 cells | 30 |
